Biological target: MMP14 in the MDA-MB-231-derived extracellular vesicles (Homo sapiens, UniProt P50281)
Construct: in terms of intact MMP14 with a molecular weight of 70 kDa
Assay: Digital detection of MDA-MB-231-derived extracellular vesicles through MMP14 activity in wells (microcompartments)
Format: biochemical
Conditions: Example 38, EV 2.5 μg/mL, reporter 5 μM, 30° C., 4 hr
No end group written: not given here. *: point of attachment. 5FAM = O=C1OC2(c3ccc(O)cc3Oc3cc(O)ccc32)c2ccc(C(=O)*)cc21; TQ2 = quencher
Can you tell me Expected value λ for the items I'm about to list?
Output: the number by itself.

Dear colleague, I am looking for the recorded Expected value λ of the following substance: TQ2-LAPLGLQRRK(5-FAM) (TQ2-LAPLGLQRRK(5FAM)) [Custom #11]
0.1358

Dear colleague, I am looking for the recorded Expected value λ of the following substance: TQ2-YPPRPLLARK(5-FAM) (TQ2-YPPRPLLARK(5FAM)) [Custom #15]
0.1248

Dear colleague, I am looking for the recorded Expected value λ of the following substance: TQ2-DLPAGLQARK(5-FAM) (TQ2-DLPAGLQARK(5FAM)) [Custom #14]
0.246

Dear colleague, I am looking for the recorded Expected value λ of the following substance: TQ2-WPHGSLQAAK(5-FAM) (TQ2-WPHGSLQAAK(5FAM)) [Custom #16]
0.01692

Dear colleague, I am looking for the recorded Expected value λ of the following substance: TQ2-FMPLGLRGIK(5-FAM) (TQ2-FMPLGLRGIK(5FAM)) [Custom #12]
0.1297

Dear colleague, I am looking for the recorded Expected value λ of the following substance: TQ2-WYPAGLRMVK(5-FAM) (TQ2-WYPAGLRMVK(5FAM)) [Custom #13]
0.1364

###

Biological target: MMP14 in the MDA-MB-231-derived extracellular vesicles (Homo sapiens, UniProt P50281)
Construct: in terms of intact MMP14 with a molecular weight of 70 kDa
Assay: Evaluation of MMP14 activity of MDA-MB-231-derived extracellular vesicles with 96-well plate
Type: biochemical
Settings: Example 37, EV 5 μg/mL, reporter 5 μM, buffer (4)
No end group written: not given here. *: point of attachment. 5FAM = O=C1OC2(c3ccc(O)cc3Oc3cc(O)ccc32)c2ccc(C(=O)*)cc21; TQ2 = quencher
PARAMETER: Fluorescence change after 2 hours of reaction at 30° C.

Dear colleague, I am looking for the recorded Fluorescence change after 2 hours of reaction at 30° C. of the following substance: TQ2-WYPAGLRMVK(5-FAM) (TQ2-WYPAGLRMVK(5FAM)) [Custom #13]
19,279 ΔRFU

Dear colleague, I am looking for the recorded Fluorescence change after 2 hours of reaction at 30° C. of the following substance: TQ2-FMPLGLRGIK(5-FAM) (TQ2-FMPLGLRGIK(5FAM)) [Custom #12]
32,801 ΔRFU

Dear colleague, I am looking for the recorded Fluorescence change after 2 hours of reaction at 30° C. of the following substance: TQ2-WPHGSLQAAK(5-FAM) (TQ2-WPHGSLQAAK(5FAM)) [Custom #16]
4,424 ΔRFU

Dear colleague, I am looking for the recorded Fluorescence change after 2 hours of reaction at 30° C. of the following substance: TQ2-YPPRPLLARK(5-FAM) (TQ2-YPPRPLLARK(5FAM)) [Custom #15]
16,774 ΔRFU

Dear colleague, I am looking for the recorded Fluorescence change after 2 hours of reaction at 30° C. of the following substance: TQ2-DLPAGLQARK(5-FAM) (TQ2-DLPAGLQARK(5FAM)) [Custom #14]
34,878 ΔRFU

Dear colleague, I am looking for the recorded Fluorescence change after 2 hours of reaction at 30° C. of the following substance: TQ2-LAPLGLQRRK(5-FAM) (TQ2-LAPLGLQRRK(5FAM)) [Custom #11]
33,665 ΔRFU

Source listed as patent US20250290928A1.
